method_description: Quantitative High-Throughput drug screen in 47 multiple myeloma cell lines against the NCATS MIPE library collection: JIM3_ECACC cell viability assay (AID 1918963; also: potency is read from the fitted curve at half-maximal effect; nearly all actives have a fitted effect of over 35% in size)
measurement_context: JIM3 myeloma viability, CellTiter-Glo ATP, 48 h; series mostly up to 45.8 µM
Source text: PI: Beverly A. Mock Ph.D. Laboratory of Cancer Biology and Genetics, Center for Cancer Research, National Cancer Institute, National Institute of Health, Bethesda, Maryland […] 5; Detector; 425V; Luminescence; Viewlux PerkinElmer. […] 1. […] Briefly, the corresponding myeloma cell lines were screened in 1,536-well plates with 500 cells, 5-uL per well for inhibition of cell viability (assessed by measuring ATP levels with CellTiterGlo). […]
Inconclusive results are not listed. The source made the active and inactive calls. Calls follow the shape of the dose curve; as a rule, active = well fitted cell-killing curve with a large enough effect; inconclusive = small, poorly fitted or top-dose-only effect; inactive = no such curve, though single readings can be large or run the other way.
Reported Potency values follow for various compounds

CCOC(=O)[C@H](CCc1ccccc1)N[C@@H](C)C(=O)N1[C@@H](C(=O)O)C[C@H]2CCC[C@@H]21 | 13.2 µM (active)

In the following, a different compound is considered.
Lookup: Return Potency for the following compound: COC[C@H](NC(=O)c1cnc(C)s1)C(=O)N[C@@H](COC)C(=O)N[C@@H](Cc1ccccc1)C(=O)[C@@]1(C)CO1
Found: 0.296 µM (active)
